- test-details: Oral bioavailability in Sprague-Dawley rat at 30 mg/kg by HPLC method
- Assay type: ADME, organism-based
- reported-conditions: in vivo
endpoint-name: bioavailability
Write the numeric value and follow it with the unit.

// bioavailability lookup, molecule = `COc1ncc(-c2ccc3ncnc(-c4cccc(C(=O)N5CCN(C(C)=O)CC5)c4)c3c2)cc1C#N` , result: 10%

* * *

- test-details: Tmax in Sprague-Dawley rat at 3 mg/kg, po by HPLC method
- Assay type: ADME, organism-based
- reported-conditions: in vivo
endpoint-name: Tmax (h)
The reply should contain only the number, in h.

// Tmax lookup, compound = `COc1ncc(-c2ccc3ncnc(-c4cccc(C(=O)N5CCN(C(C)=O)CC5)c4)c3c2)cc1C#N` , result: 3.5
